B1: mRNA-splicing (parent)
chain: GAUCCAGAUCUAACUUGGGGUGGCUUUGUCUUCUUCUUUUGCCAAUUCCACUAAUUGUUUGGG

Variants of: B1
Assay: exon inclusion enrichment score (log2 ratio to wild type); higher = more inclusion; FAS exon 6 minigene, HEK293
Observable: exon inclusion enrichment score
One number for each entry.

Exam item: Please report the measured exon inclusion enrichment score for U16C
Marked response: 0.271

Exam item: Please report the measured exon inclusion enrichment score for U59G
Marked response: -0.228

Exam item: Please report the measured exon inclusion enrichment score for A2U
Marked response: -0.046

Exam item: Please report the measured exon inclusion enrichment score for U40A
Marked response: -2.39

Exam item: Please report the measured exon inclusion enrichment score for U35C
Marked response: 0.127

Exam item: Please report the measured exon inclusion enrichment score for U38C
Marked response: 0.106

Exam item: Please report the measured exon inclusion enrichment score for C5U
Marked response: -4.59

Exam item: Please report the measured exon inclusion enrichment score for U9A
Marked response: -0.097

Exam item: Please report the measured exon inclusion enrichment score for U29G
Marked response: -3.82

Exam item: Please report the measured exon inclusion enrichment score for U60G
Marked response: -0.709

# batch: return exon inclusion enrichment score for each of the 6 variants below
1. U39A
2. U27G
3. U55A
4. G41U
5. A44C
6. U34G

Marked response:
1. 0.361
2. -0.115
3. 0.386
4. -1.24
5. -0.731
6. 0.283
